System: HBV
METHOD DESCRIPTION: Anti-HBV activity in HepG2.2.15 cells (HBV DNA in culture medium by qPCR)
Format: cell-based
CONDITION INFO: Hepatitis B virus, HepG2.2.15, 144 h, HepG2.2.15 cells, 6 days treatment, HBV DNA in culture medium quantified by real-time PCR; read-out: EC50
pEC50: −log10 of the molar value.
compounds and their reported pEC50

COMPOUND	VALUE OPERATOR	pEC50
CCOC(=O)C1=C(CN2CC(F)(F)[C@@H]3CN(C(N)=O)C[C@@H]32)NC(c2nccs2)=N[C@H]1c1cccc(F)c1C (single isomer, unassigned)	=	7.88
CCOC(=O)C1=C(CN2CC(F)(F)C3CN(CC4(C(=O)O)CC4)CC32)NC(c2nccs2)=N[C@H]1c1cccc(F)c1C (some centres unmarked)	=	6.95
CCOC(=O)C1=C(CN2CC(F)(F)C3CN(C(C)C(=O)O)CC32)NC(c2nccs2)=N[C@H]1c1cccc(F)c1C (stereo in doubt)	=	6.86
COC(=O)C1=C(CN2CC(F)(F)[C@H]3[C@@H]2CCN3C[C@@H](C)C(=O)O)NC(c2nccs2)=N[C@H]1c1ccc(F)cc1Cl (single isomer, unassigned) [Compound 133A]	>	9.30
CCOC(=O)C1=C(CN2CC(F)(F)[C@@H]3[C@H]2CN(CC(F)F)N3CCC(C)(C)C(=O)O)NC(c2nccs2)=N[C@H]1c1cccc(F)c1C (single isomer, unassigned)	=	7.15

----------
Entries annotated with measured CC50 at 6 days
METHOD DESCRIPTION: Cytotoxicity determination in HepG2.2.15 cells (CCK-8 cell viability)
Format: cell-based
CONDITION INFO: human, 6 days treatment, CCK-8 assay, highest concentration 100 uM

COMPOUND	VALUE OPERATOR	CC50 at 6 days / µM
CCOC(=O)C1=C(CN2CC(F)(F)[C@H]3CN(C(C)C(=O)O)C[C@H]32)NC(c2nccs2)=N[C@H]1c1cccc(F)c1C (single isomer, unassigned) [Compound 14B]	=	67.9
CCOC(=O)C1=C(CN2CC(F)(F)[C@@H]3CN(C[C@@H](CC)C(=O)O)C(=O)C32)NC(c2nccs2)=N[C@H]1c1cccc(F)c1C (single isomer, unassigned) [Compound 183A]	=	40.3
CCOC(=O)C1=C(CN2CC(F)(F)C3CC(C(=O)O)CC32)NC(c2nccs2)=N[C@H]1c1cccc(F)c1C (stereo partly drawn)	=	26.7
CCOC(=O)C1=C(CN2CC(F)(F)[C@@H]3[C@H]2CON3CCC(C)(C)C(=O)O)NC(c2nccs2)=N[C@H]1c1ccc(F)c(F)c1F (single isomer, unassigned)	>	50
COC(=O)C1=C(CN2CC(F)(F)[C@@H]3C(=O)N(CC(C)(C)C(=O)O)C[C@@H]32)NC(c2nccs2)=N[C@H]1c1cccc(F)c1Cl (single isomer, unassigned)	>	100
COC(=O)C1=C(CN2CC(F)(F)C3CN(CC(C)(C)C(=O)O)CC32)NC(c2nccs2)=N[C@H]1c1cccc(F)c1C (single isomer, unassigned) [Compound 19B]	=	24.2
[H][C@]1(N2CC[C@H]3[C@@H]2C(F)(F)CN3CC2=C(C(=O)OC)[C@H](c3cccc(F)c3F)N=C(c3nccs3)N2)C[C@]2(C[C@@H](C(=O)O)C2)C1 (single isomer, unassigned) [Compound 120B]	=	19.9
CCOC(=O)C1=C(CN2CC(F)(F)[C@@H]3CN([C@H]4CC[C@H](C(=O)O)CC4)C(=O)[C@@H]32)NC(c2nccs2)=N[C@H]1c1cccc(F)c1C (single isomer, unassigned) [Compound 185B]	=	27.6
CCOC(=O)C1=C(CN2CC(F)(F)[C@@H]3[C@H]2CN(C(=O)C2(F)CC2)N3CCC(C)(C)C(=O)O)NC(c2nccs2)=N[C@H]1c1cccc(F)c1C (single isomer, unassigned)	=	22.6
